- Procedure text: Pharmacokinetics in humans, MRTX1133 formulation, oral, single and multiple doses
- Format: in vivo
- Measurement setup: human, plasma, po, 800 mg, single oral dose of 800 mg, fasted; Geo Mean of subjects; read-out: AUC0-12
Measured parameter: AUC(0-t) (ng·h/mL)
Just the number in ng·h/mL, nothing appended.

q: Which value of AUC(0-t) has been reported for C#Cc1c(F)ccc2cc(O)cc(-c3ncc4c(N5C[C@H]6CC[C@@H](C5)N6)nc(OC[C@@]56CCCN5C[C@H](F)C6)nc4c3F)c12 [MRTX1133] in the records?
a: 440

----------
- Procedure text: Pharmacokinetics in humans, MRTX1133 formulation, oral, single and multiple doses
- Assay type: in vivo
- Measurement setup: human, plasma, po, 400 mg, single oral dose of 400 mg with a low-fat meal; 96 h; individual subjects; read-out: Plasma concentration
Measured parameter: concentration at 96 h (ng/mL)
Just the number in ng/mL, nothing appended.

q: Which value of concentration at 96 h has been reported for C#Cc1c(F)ccc2cc(O)cc(-c3ncc4c(N5C[C@H]6CC[C@@H](C5)N6)nc(OC[C@@]56CCCN5C[C@H](F)C6)nc4c3F)c12 [MRTX1133] in the records?
a: 1.12

meta.source: patent US20250120981A1
